// data source = patent US10501449B2

Assignment: determine reported IC50 for the given molecules.
target-system: hROMK (human Kir1.1) (Homo sapiens (Human))
Sequence (P48048 whole entry): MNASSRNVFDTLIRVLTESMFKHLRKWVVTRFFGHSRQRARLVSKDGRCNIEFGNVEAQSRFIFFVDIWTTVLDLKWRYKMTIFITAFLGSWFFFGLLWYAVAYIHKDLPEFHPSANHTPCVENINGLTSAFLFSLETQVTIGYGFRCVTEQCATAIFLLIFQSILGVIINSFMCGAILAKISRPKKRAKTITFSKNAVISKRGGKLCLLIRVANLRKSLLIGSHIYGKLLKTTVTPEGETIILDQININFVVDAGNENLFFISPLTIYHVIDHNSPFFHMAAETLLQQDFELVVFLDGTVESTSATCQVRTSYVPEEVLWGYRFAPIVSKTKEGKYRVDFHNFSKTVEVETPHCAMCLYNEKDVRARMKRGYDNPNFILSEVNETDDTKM
test-description: cell-based
condition-parameters: CHO T-Rex hROMK stable cell line; thallium flux; 10-point concentration response curve; read-out: Human ROMK Th Flux IC50
Numbers only, in nM.

Past entries and their recorded results:
>>> measured_result("Cc1cn(-c2ncc(CN3CCN[C@H](c4ccc5c(c4C)COC5=O)C3)cn2)nc1C#N")
13
>>> measured_result("COc1cc(-n2ncc(CN3CCN[C@H](c4ccc5c(c4C)COC5=O)C3)n2)ncc1C#N")
20
>>> measured_result("Cc1nccc(-n2cc(CN3C[C@@H](c4ccc5c(c4C)COC5=O)N[C@@H](C)C3)n(C)c2=O)n1")
55
>>> measured_result("COc1nc(-n2cc(CN3C[C@@H](c4ccc5c(c4C)COC5=O)N[C@@H](C)C3)nc2C)ncc1C#N")
26
>>> measured_result("Cc1c([C@@H]2CN(Cc3cnn(-c4cccc(N(C)S(C)(=O)=O)n4)c3)C[C@H](C)N2)ccc2c1COC2=O")
72
>>> measured_result("Cc1cc(-n2cc(CN3CCN[C@H](c4ccc5c(c4)COC5=O)C3)cn2)ncc1C#N")
63
>>> measured_result("COc1cc(-n2cc(CCN3C[C@@H](c4ccc5c(c4C)COC5=O)N[C@@H](C)C3)cn2)ncc1C#N")
16
>>> measured_result("Cc1c([C@@H]2CN(Cc3ccc(-n4cnc(C#N)c4)nc3)CCN2)ccc2c1COC2=O")
14

Could you report IC50 for every entry in the following list?
1. COc1cc(-n2cc(CN3C[C@@H](c4ccc5c(c4C)COC5=O)N[C@@H](C)C3)nn2)nc(C)c1C#N
2. Cc1cc(-n2cc(CN3CC(CO)CC(c4ccc5c(c4C)COC5=O)C3)cn2)ncc1C#N (single isomer, unassigned)

1: 64; 2: 27
